Where these numbers come from: paper PMC10726135

Molecular target: HNF4alpha2 (COS-7 nuclear extract) (Homo sapiens, UniProt P41235 1-474)
Sequence: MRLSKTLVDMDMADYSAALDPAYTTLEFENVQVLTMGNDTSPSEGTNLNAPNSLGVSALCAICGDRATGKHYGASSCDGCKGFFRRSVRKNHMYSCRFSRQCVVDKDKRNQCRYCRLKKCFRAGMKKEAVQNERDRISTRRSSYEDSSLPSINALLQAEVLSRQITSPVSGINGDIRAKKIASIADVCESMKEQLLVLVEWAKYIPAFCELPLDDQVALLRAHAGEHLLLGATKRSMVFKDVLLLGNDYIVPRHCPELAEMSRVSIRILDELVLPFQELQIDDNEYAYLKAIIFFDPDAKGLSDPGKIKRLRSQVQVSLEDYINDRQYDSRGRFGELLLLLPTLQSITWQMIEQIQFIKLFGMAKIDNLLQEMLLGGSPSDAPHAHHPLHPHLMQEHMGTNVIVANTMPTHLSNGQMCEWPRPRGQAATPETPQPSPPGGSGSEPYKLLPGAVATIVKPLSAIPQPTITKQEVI
Test: protein-binding microarray; COS-7 nuclear extract on double-stranded Agilent 4x180k PBM; binding buffer, salt, pH and temperature not given in the material; high values mean tight binding
Details: chain copies: 2; label: 3' end of strand 1 on the slide; dsDNA, one strand shown
Over roughly 18,000 sequences, “log2 normalized intensity” has its median near 0.39; the highest 2% begin near 6.6. The sample as a whole holds a higher share of the highest values than the screen did.
# label = fulfilled if binding signal >= 2 log2 normalized intensity else not fulfilled

Example cases with answers are listed next.
TTTCATTCCACTGACTTGCAACCTTTGCCCGCCTAGGGAGATTAGAGTATCGGTCGA fulfilled
GGCACAGTAACCTGACCCCCAGTGGAATGTGCCTAGGGAGATTAGAGTATCGGTCGA fulfilled
GGGGAGGTCAACCAGGGAAATTACCCTCTAGCCTAGGGAGATTAGAGTATCGGTCGA not fulfilled
GTTAGGAAACACTCTGTTTGTAAAGTCTACGCCTAGGGAGATTAGAGTATCGGTCGA not fulfilled
TCATCTTCAAAGCCAGCAATGGCAGGTCCAGCCTAGGGAGATTAGAGTATCGGTCGA not fulfilled

Please indicate if the recorded binding signal for CTGGCTTTCATTCCACTGACTTGCAACCTTGCCTAGGGAGATTAGAGTATCGGTCGA meets or exceeds 2 log2 normalized intensity.
not fulfilled

Please indicate if the recorded binding signal for CCTTTACCCTGACCTGTCAAGCAATGATCTGCCTAGGGAGATTAGAGTATCGGTCGA meets or exceeds 2 log2 normalized intensity.
not fulfilled

Please indicate if the recorded binding signal for CCCTTGGAATGTGACCTTAGACCCCTGAATGCCTAGGGAGATTAGAGTATCGGTCGA meets or exceeds 2 log2 normalized intensity.
fulfilled

* * *

Molecular target: HNF4alpha2 (COS-7 nuclear extract) (Homo sapiens, UniProt P41235 1-474)
Sequence: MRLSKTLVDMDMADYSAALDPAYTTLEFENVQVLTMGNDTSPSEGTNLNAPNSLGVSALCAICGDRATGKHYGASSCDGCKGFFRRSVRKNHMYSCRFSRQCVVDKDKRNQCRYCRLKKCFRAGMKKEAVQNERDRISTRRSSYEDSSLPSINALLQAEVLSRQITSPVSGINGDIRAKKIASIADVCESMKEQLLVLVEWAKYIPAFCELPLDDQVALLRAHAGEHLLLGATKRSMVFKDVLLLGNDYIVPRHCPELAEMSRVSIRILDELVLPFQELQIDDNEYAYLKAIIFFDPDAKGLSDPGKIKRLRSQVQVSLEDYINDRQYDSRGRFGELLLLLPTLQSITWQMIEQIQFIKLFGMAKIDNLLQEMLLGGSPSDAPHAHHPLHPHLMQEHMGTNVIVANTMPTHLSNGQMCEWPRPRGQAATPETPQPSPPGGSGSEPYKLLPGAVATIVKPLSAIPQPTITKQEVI
Test: protein-binding microarray; COS-7 nuclear extract on double-stranded Agilent 4x180k PBM; binding buffer, salt, pH and temperature not given in the material; high values mean tight binding
Conditions: chain copies: 2; label: 3' end of strand 1 on the slide; dsDNA, one strand shown
In all, about 18,000 sequences were measured (“log2 normalized intensity”: median about 0.39, highest 2% from about 6.6 on). Only a selection was taken, and the highest values are over-represented in it overall.
sequences and their reported binding signal
API: value field is a number in log2 normalized intensity; no unit string.

Use the examples below as a reference point.
GGTGGGCTGCTCCCAGTGCCCTTTGAACTCGCCTAGGGAGATTAGAGTATCGGTCGA 8.32
GAGTCTGTTGTCTAACATTTTTGACCTTCAGCCTAGGGAGATTAGAGTATCGGTCGA 4.09
CGCTCTGAGTGACCTTTCACCCGCGCCCAGGCCTAGGGAGATTAGAGTATCGGTCGA 5.48
AGTGGAATGTGCCCTTTGACCTCTCTCTCCGCCTAGGGAGATTAGAGTATCGGTCGA 7.71
GGAATGACCTTTGATATTTGTGCCTAGTGGGCCTAGGGAGATTAGAGTATCGGTCGA 4.8

binding signal lookup needed for GGCGCCGCTCTGAGTGACCTTTCACCCGCGGCCTAGGGAGATTAGAGTATCGGTCGA , thanks.
6.81
